MEASURED TARGET: GAL4 DBD-CfEcR(DEF)/VP16AD-MmRXRE (Choristoneura fumiferana, UniProt O77240)
Sequence (O77240 1-513): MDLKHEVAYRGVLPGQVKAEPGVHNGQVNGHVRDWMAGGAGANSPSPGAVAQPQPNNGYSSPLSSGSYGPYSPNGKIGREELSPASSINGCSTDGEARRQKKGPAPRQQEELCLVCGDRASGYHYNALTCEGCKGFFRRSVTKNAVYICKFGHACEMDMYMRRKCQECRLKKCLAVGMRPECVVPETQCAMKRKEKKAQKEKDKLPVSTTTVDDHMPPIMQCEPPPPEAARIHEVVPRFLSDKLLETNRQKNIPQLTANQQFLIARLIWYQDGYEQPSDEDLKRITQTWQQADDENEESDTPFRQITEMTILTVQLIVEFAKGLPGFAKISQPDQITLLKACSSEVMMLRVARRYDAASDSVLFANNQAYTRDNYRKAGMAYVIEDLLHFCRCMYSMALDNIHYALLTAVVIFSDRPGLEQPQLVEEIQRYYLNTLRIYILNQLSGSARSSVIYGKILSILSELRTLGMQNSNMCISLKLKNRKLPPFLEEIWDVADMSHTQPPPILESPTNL
EXPERIMENT SUMMARY: cell-based
pEC50: −log10 of the molar value.
REPORTED ENDPOINT: pEC50

Solved entries:
[
  {
    "COMPOUND": "COc1cccc(C(=O)NC2(C(=O)c3cc(F)c(F)c(OC)c3)CCCCC2)c1C",
    "pEC50": 5.06
  },
  {
    "COMPOUND": "COc1cccc(C(=O)NC2(C(=O)c3ccccc3)CCCCC2)c1C",
    "pEC50": 4.71
  },
  {
    "COMPOUND": "COc1cccc(C(=O)NC2(C(=O)c3cc(C)cc(C)c3)CCOCC2)c1C",
    "pEC50": "~4.70"
  }
]

Answer for every listed entry: what is its pEC50? The entries follow.
1. COc1cccc(C(=O)NC2(C(=O)c3ccc(F)cc3)CCCCC2)c1C
2. COc1cccc(C(=O)NC2(C(=O)c3cccc(C)c3)CCC2)c1C

Out:
< 4.48
< 4.48

###

MEASURED TARGET: GAL4 DBD-CfEcR(DEF)/VP16AD-MmRXRE (Choristoneura fumiferana)
Sequence (O77240 1-513): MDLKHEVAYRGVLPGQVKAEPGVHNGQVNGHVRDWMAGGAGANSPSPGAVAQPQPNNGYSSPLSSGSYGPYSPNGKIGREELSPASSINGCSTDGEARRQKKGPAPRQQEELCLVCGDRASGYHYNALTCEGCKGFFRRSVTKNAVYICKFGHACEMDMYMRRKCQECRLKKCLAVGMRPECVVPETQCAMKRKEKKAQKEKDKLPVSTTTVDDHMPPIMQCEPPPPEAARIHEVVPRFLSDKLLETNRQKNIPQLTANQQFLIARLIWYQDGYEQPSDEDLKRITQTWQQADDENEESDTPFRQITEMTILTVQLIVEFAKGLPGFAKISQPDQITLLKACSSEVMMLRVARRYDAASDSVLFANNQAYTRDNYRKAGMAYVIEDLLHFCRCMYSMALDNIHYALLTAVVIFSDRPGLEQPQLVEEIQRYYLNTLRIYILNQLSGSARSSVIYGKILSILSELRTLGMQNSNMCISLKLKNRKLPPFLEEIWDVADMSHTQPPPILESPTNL
EXPERIMENT SUMMARY: cell-based
CONDITION DESCRIPTION: CHO, read-out: Fold Induction Average, 13B3 Assay (33 μM)
Cut-off 100 on fold induction at 33 µM: below means Fulfilled, at or above means Not fulfilled.

[
  {
    "MOLECULE": "COc1cccc(C(=O)NC(C)(CC(C)C)C(=O)c2cccc(C)c2)c1C (stereo not drawn) [Example 52]",
    "GROUP": "Not fulfilled"
  },
  {
    "MOLECULE": "CCc1c(C(=O)NC2(C(=O)c3ccccc3)CCCC2)ccc2c1OCCO2 [Example 22]",
    "GROUP": "Fulfilled"
  },
  {
    "MOLECULE": "COc1cccc(C(=O)NC2(C(=O)c3ccc(F)cc3)CCCCC2)c1C [Example 60]",
    "GROUP": "Not fulfilled"
  },
  {
    "MOLECULE": "COc1cccc(C(=O)NC2(C(=O)c3cccc(C)c3)CCOCC2)c1C [Example 25]",
    "GROUP": "Not fulfilled"
  },
  {
    "MOLECULE": "COc1cccc(C(=O)NC2(C(=O)c3cc(C)cc(C)c3)CC2)c1C [Example 13]",
    "GROUP": "Fulfilled"
  }
]

In: # strict comparison: is reported fold induction at 33 µM < 100? input = CCCCC(=O)C1(NC(=O)c2cccc(OC)c2C)CCCCC1 [Example 120]
Out: Not fulfilled

In: Would you kindly verify if fold induction at 33 µM of COc1cccc(C(=O)C2(NC(=O)c3cccc(OC)c3C)CCCCC2)c1 [Example 4] is strictly less than 100?
Out: Fulfilled

In: Record COc1cccc(C(=O)NC2(C(=O)c3cc(C)cc(C)c3)CCCCC2)c1C [Example 11] : is its fold induction at 33 µM strictly below 100?
Out: Not fulfilled

In: Say whether its fold induction at 33 µM is strictly beneath 100. Entry: COc1ccccc1C(=O)C(C)(NC(=O)c1cccc(OC)c1C)C(C)C (stereo not drawn) [Example 30]
Out: Not fulfilled

###

MEASURED TARGET: Bombyx mori EcR (VP16 fusion, switch construct CVBE) with 6XEcRE LacZ reporter (Bombyx mori)
Construct: expressed in transfected cells; host or cells: Human 293 kidney (HEK-293) cells, retrovirally infected, clone Z3
Sequence (P49881 86-606 limits assumed): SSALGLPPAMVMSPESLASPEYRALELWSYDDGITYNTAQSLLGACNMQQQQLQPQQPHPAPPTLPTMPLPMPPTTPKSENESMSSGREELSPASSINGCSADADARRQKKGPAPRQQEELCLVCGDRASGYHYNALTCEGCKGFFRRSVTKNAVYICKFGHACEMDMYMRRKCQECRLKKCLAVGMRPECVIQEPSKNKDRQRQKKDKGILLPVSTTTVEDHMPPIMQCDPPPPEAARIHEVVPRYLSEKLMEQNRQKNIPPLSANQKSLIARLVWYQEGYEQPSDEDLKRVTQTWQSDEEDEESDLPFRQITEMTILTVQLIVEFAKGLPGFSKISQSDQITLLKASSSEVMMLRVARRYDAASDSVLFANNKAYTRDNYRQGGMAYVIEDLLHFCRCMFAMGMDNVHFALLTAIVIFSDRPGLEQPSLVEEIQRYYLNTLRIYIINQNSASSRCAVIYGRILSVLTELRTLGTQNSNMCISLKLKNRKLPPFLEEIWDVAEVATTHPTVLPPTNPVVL
Sequence (P19793 1-462 partner): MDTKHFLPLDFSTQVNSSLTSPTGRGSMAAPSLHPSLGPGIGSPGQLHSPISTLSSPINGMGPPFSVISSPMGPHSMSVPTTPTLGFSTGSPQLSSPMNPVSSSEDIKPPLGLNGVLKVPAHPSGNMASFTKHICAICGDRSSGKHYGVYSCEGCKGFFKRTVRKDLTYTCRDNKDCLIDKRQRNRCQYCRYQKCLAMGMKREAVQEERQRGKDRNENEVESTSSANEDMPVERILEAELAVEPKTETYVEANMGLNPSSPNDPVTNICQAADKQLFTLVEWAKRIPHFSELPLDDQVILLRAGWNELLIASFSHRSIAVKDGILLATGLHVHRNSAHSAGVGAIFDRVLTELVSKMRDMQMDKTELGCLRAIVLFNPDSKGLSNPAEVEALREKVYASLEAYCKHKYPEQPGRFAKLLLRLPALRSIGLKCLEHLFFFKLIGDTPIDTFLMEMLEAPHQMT
EXPERIMENT SUMMARY: Z3 assay: β-galactosidase (LacZ) reporter gene fold induction in stably transformed human 293 kidney cells (clone Z3)
Assay type: cell-based
CONDITION DESCRIPTION: read-out: Fold Induction Average, Z3 Assay (33 μM)
Values of fold induction at 33 µM greater than or equal to 300 map to class 1; values below map to class 0.

Solved cases (3 shown):
[
  {
    "MOLECULE": "COc1cccc(C(=O)NC2(C(=O)c3ccccc3)CCCCC2)c1C",
    "GROUP": "class 1"
  },
  {
    "MOLECULE": "COc1cccc(C(=O)NC(C)(Cc2ccccc2)C(=O)c2cc(C)cc(C)c2)c1C (stereo not drawn)",
    "GROUP": "class 0"
  },
  {
    "MOLECULE": "COc1ccccc1C(=O)C1(NC(=O)c2cccc(OC)c2C)CCCCC1",
    "GROUP": "class 1"
  }
]

In: fold induction at 33 µM >= 300 for `COc1cccc(C(=O)NC2(C(=O)c3cc(F)c(F)c(OC)c3)CCCCC2)c1C` ?
Out: class 1

In: Item `COc1cccc(C(=O)NC2(C(=O)c3cccc(C)c3)CCC2)c1C` with fold induction at 33 µM of 300 or above?
Out: class 0
